FYI, the data here is from PubChem BioAssay.

# measurement notes: binders from COS7 lysate, DM2A8 probe, primary screen, torsin A project, cell lysate, small-molecule microarray, fluorescence 635/667 (AID 1065)
# measurement context: higher = more signal, COS7 lysate expressing mutant human TOR1A
// No strictly below 0.6 in composite z-score; Yes otherwise

q: Decide: composite z-score of CO[C@H]1O[C@H](CO)[C@@H](OC(=O)Nc2ccc(Oc3ccccc3)cc2)[C@H](OC(=O)Nc2ccccc2-c2ccccc2)[C@@H]1OC(=O)Nc1ccccc1-c1ccccc1 >= 0.6?
a: Yes

q: Decide: composite z-score of Cc1c(NC(=O)/C(C#N)=C/C=C/c2ccccc2[N+](=O)[O-])c(=O)n(-c2ccccc2)n1C >= 0.6?
a: No

q: Decide: composite z-score of CC(C)(C)OC(=O)CC[C@]1(C(=O)NCCN2CCOCC2)N=C(c2ccc(OCCCO)cc2)O[C@H]1c1ccccc1N=[N+]=[N-] >= 0.6?
a: Yes

q: Decide: composite z-score of CC(C)C(O)C1C=CC2C(=O)N(C)C(=O)C2N1N(c1ccccc1)c1ccccc1 (centres undefined) >= 0.6?
a: No

q: Decide: composite z-score of C=CCOC(=O)[C@@H]1[C@H]2C(=O)O[C@H](c3ccccc3)[C@H](c3ccccc3)N2[C@H](c2ccc(OCCOC(=O)[C@H]3C[C@H]4C(=O)N[C@@H](CCCCNC(C)=O)C(=O)N4[C@H]3c3cccc(OCCO)c3)cc2)[C@@]12C(=O)Nc1ccc(I)cc12 >= 0.6?
a: Yes

q: Decide: composite z-score of C[C@H]1C2=C3C(CC[C@H]4C(OCc5ccc(F)cc5C(F)(F)F)OC[C@](C)([C@@H]34)N(C(=O)OC(C)(C)C)C2)C(CO)C1CO (some centres undefined) >= 0.6?
a: No

q: Decide: composite z-score of COc1ccc([Si](C)(C)[C@@H]2[C@@H](CC(=O)N3CCC[C@H]3CO)O[C@]3(C(=O)N(Cc4ccc(N5C(=O)c6cccc7cccc5c67)cc4)c4ccccc43)[C@H]2C)cc1 >= 0.6?
a: Yes

q: Decide: composite z-score of COC(=O)[C@@]1(Cc2ccc(OC)cc2)[C@H]2c3cc(C(=O)N(C)C)n(Cc4ccccc4)c3C[C@H]2CN1C(=O)c1ccccc1 >= 0.6?
a: No

q: Decide: composite z-score of C=C(COC)/C(=C/C[C@@H](OC(=O)c1ccncc1)c1cccc(OCCO)c1)c1cnc2ccccc2c1 >= 0.6?
a: Yes

q: Decide: composite z-score of COCCOC(=O)N1C(=O)[C@@]2(c3cc(C#CC4(O)CCCCCC4)ccc31)[C@H](c1ccccc1OCCO)N1[C@H](c3ccccc3)[C@H](c3ccccc3)OC(=O)[C@H]1[C@@H]2C(N)=O >= 0.6?
a: No

q: Decide: composite z-score of CN(C)CCCNC(=O)[C@@H]1c2ccccc2C(=O)N(CC23CC4CC(CC(C4)C2)C3)[C@H]1c1ccc(CO)cc1 >= 0.6?
a: Yes

q: Decide: composite z-score of COC(=O)C1(Cc2ccccc2)C=C2C(=C(c3ccccc3)C(=O)C2C)CN1 (centres undefined) >= 0.6?
a: No

q: Decide: composite z-score of C[C@@H]1ON(c2ccc(C(=O)OC(C)(C)C)cc2)[C@H](c2ccc(Br)cc2)[C@H]1C(=O)N1C(=O)OC[C@H]1Cc1ccccc1 >= 0.6?
a: No

q: Decide: composite z-score of CCCNC(=O)[C@@]1(c2ccc([N+](=O)[O-])cc2)CC(=O)N(C2CCCCC2)[C@@H]1c1ccc(CO)cc1I >= 0.6?
a: Yes
